- Test system: HeLa
- experimental-protocol: Growth inhibition of human HeLa cells at 10 uM after 72 hrs by MTT assay relative to control
- Format: functional
- stated-conditions: read-out: GI
value-kind: inhibition of growth at 10 µM

1. CCC[C@H]1[C@@H]2CCc3cc(OCc4cn(C[C@H]5O[C@H](OC)[C@@H](OC(=O)c6ccccc6)[C@@H](OC(=O)c6ccccc6)[C@@H]5OC(=O)c5ccccc5)nn4)ccc3[C@H]2CC[C@]1(C)/C=N/O | < 20%
2. CCC[C@H]1[C@@H]2CCc3cc(OCc4cn([C@@H]5O[C@H](COC(C)=O)[C@@H](OC(C)=O)[C@H](OC(C)=O)[C@H]5OC(C)=O)nn4)ccc3[C@H]2CC[C@]1(C)/C=N/O | 20.4%
3. CCC[C@H]1[C@@H]2CCc3cc(OCc4cn([C@@H]5O[C@H](CO)[C@@H](O)[C@H](O)[C@H]5O)nn4)ccc3[C@H]2CC[C@]1(C)/C=N/O | < 20%
4. CCC[C@H]1[C@@H]2CCc3cc(OCc4cn([C@@H]5O[C@H](CO)[C@@H](O)[C@H](O)[C@H]5O)nn4)ccc3[C@H]2CC[C@]1(C)CO | < 20%
